Where these numbers come from: paper PMC12136788

Target: T1, UNK ZnF1-6 (called full-length) (human, UniProt Q9C0B0 30-357)
T1 sequence: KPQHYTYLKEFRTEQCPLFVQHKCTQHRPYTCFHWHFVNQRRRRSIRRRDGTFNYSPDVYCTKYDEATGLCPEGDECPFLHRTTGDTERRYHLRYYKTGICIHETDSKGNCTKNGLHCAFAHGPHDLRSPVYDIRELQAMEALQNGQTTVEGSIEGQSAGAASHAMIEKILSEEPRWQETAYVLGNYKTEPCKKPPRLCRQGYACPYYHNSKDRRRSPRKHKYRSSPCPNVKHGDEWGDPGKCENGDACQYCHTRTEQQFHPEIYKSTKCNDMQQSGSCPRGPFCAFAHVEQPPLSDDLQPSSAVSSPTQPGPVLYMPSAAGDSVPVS
Test: nsRBNS (natural sequence RNA bind-n-seq); RBNS binding buffer (assumed for nsRBNS): 25 mM Tris pH 7.5, 150 mM KCl, 3 mM MgCl2, 0.01% Triton X-100, 500 ug/ml BSA, 20 U/ml SUPERase-In, 4 C; UNK is unkempt and MSI1 is Musashi-1; names of the RNAs are library labels; protein concentration not given here; high values mean tight binding
Whole data set: some 5,800 sequences, median “enrichment r” near 0.68, cut for the highest 2% near 11. Only a sample is shown.
Reported binding signal is given for each of the following binders.
Give the value in enrichment R but do not write enrichment R after it.

Worked cases, answers included:
chr1:173887777:173887878:+|3pUTR|ENSG00000185278|unk|FALSE|unique (ssRNA) RNA: GGGAGUUCUACAGUCCGACGAUCAAAGAGAUUUGGCAGAGGGACAGGUUGUACCUGCACUGGUGAACCAUCUGUGAGAAUGUUAGUCAUGUGCUCCUUUCCUGAGAUUGCUUUGUGGUAUGUGAAAAGGUGGGUAGAAAAGAACAACAGAGGAUUGAGCAUCA; 0.823
chr8:28970260:28970371:+|CDS|ENSG00000147421|unk|total|mutant (ssRNA) RNA: GGGAGUUCUACAGUCCGACGAUCUCUUCCUCUACAGCUACAGCUUCCACACAGACGCAGCAUUCGGGAAUGUCCCCGUCACCCCGCAACAGUUAUGAUACUUCCCCACAGCCUUGCACUACCAAUCAAAAUGGGAGGGAGAAUCAACAGAGGAUUGAGCAUCA; 0.625

chr3:11557161:11557262:-|3pUTR|ENSG00000144560|msi1|total|mutant (ssRNA) RNA: GGGAGUUCUACAGUCCGACGAUCCCUCUGACUUUAUACUGUUAUUACUGCAUUUAUUAUUUGCUAUAUUAACCGCUACUAACCCGAAAUCCGAUGAAGCAAGCAUGACAGACACAGCUGUGGAGGUCACAGCUGCUCCUUUUUCAACAGAGGAUUGAGCAUCA has a reported binding signal of 0.51
